Entry source: patent US10800784B2

- target-under-test: human PDHK1 (hPDHK1) (Homo sapiens (Human), UniProt Q15118)
- Sequence (Q15118 29-436): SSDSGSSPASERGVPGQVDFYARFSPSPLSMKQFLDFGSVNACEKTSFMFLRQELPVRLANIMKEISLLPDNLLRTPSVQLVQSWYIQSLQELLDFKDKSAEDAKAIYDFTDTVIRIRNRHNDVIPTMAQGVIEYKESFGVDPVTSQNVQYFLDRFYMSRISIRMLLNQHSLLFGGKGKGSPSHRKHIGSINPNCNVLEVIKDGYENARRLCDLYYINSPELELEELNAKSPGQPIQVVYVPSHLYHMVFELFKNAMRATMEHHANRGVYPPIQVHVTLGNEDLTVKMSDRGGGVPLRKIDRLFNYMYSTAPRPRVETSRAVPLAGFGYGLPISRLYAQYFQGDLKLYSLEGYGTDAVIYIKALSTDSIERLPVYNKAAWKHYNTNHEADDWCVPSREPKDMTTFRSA
- test-method-notes: Inhibitory action of PDHK1 activity in vitro (residual PDH activity after PDHK reaction)
- assay-setup: PDH/hPDHK1 complex solution, PDHK reaction at room temperature for 45 min, NADH absorbance at 340 nm; read-out: hPDK1 IC50
reported-endpoint: IC50 (nM)

INSERT INTO assay_data (smiles_entry, reported_endpoint, data_value) VALUES
  ('C[C@H]1CN(C(=O)c2ccnn2C2CC2)Cc2cnc([C@@](C)(O)C(F)(F)F)n21', 'IC50', 13),
  ('Cc1nc(-c2ccc(C#N)cc2)oc1C(=O)N1Cc2cnc([C@@](C)(O)C(F)(F)F)n2[C@@H](C)C1', 'IC50', 5);

P = C[C@H]1CN(C(=O)c2cc(-c3ccc(C#N)cc3)n(C)n2)Cc2cnc([C@@](C)(O)C(F)(F)F)n21
Q = C[C@H]1CN(C(=O)c2c(C#N)c(C3CC3)nn2C)Cc2cnc([C@@](C)(O)C(F)(F)F)n21
Of P versus Q , which is the one with smaller reported IC50? Give the label of your selection.
Q
(Q: 5 nM, P: 12 nM)

---

- target-under-test: human PDHK1 (hPDHK1) (Homo sapiens (Human))
- test-method-notes: Inhibitory action of PDHK1 activity in vitro (residual PDH activity after PDHK reaction)
- Format: biochemical
- assay-setup: at 3 nmol/L; shown when IC50 value could not be calculated; read-out: hPDHK1 inhibitory rate at the lowest concentration of the test compound
reported-endpoint: inhibition at 0.003 µM (%)

INSERT INTO measurements (compound, unit_annotation, data_value) VALUES
  ('C[C@H]1CN(C(=O)c2cc(-c3ccc(F)cc3)ccn2)Cc2cnc([C@@](C)(O)C(F)(F)F)n21 [Example 55]', '%', 54),
  ('C[C@H]1CN(C(=O)c2cccc(-c3ccc(C#N)cc3)n2)Cc2cnc([C@@](C)(O)C(F)(F)F)n21 [Example 43]', '%', 52),
  ('C[C@H]1CN(C(=O)c2n[nH]c3ccccc23)Cc2onc([C@@](C)(O)C(F)(F)F)c21 [Example 101]', '%', 69),
  ('C[C@H]1CN(C(=O)c2nn(C)c3cc(C#N)ccc23)Cc2cnc([C@@](C)(O)C(F)(F)F)n21 [Example 5]', '%', 55);

---

- target-under-test: human PDHK1 (hPDHK1) (Homo sapiens (Human), UniProt Q15118)
- test-method-notes: Inhibitory action of PDHK1 activity in vitro (residual PDH activity after PDHK reaction)
- assay-setup: PDH/hPDHK1 complex solution, PDHK reaction at room temperature for 45 min, NADH absorbance at 340 nm; read-out: hPDK1 IC50
reported-endpoint: IC50 (nM)

INSERT INTO results (smiles_entry, target_under_test, unit_annotation, data_value) VALUES
  ('C[C@H]1CN(C(=O)c2cc(-c3ccc(F)cn3)nn2C)Cc2cnc([C@@](C)(O)C(F)(F)F)n21', 'human PDHK1 (hPDHK1) (Homo sapiens (Human), UniProt Q15118)', 'nM', 5),
  ('C[C@H]1CN(C(=O)c2n[nH]c3ccc(F)cc23)Cc2onc([C@@](C)(O)C(F)(F)F)c21', 'human PDHK1 (hPDHK1) (Homo sapiens (Human), UniProt Q15118)', 'nM', 4),
  ('C[C@H]1CN(C(=O)c2cc(C3(C)CC3)n(C)n2)Cc2onc([C@@](C)(O)C(F)(F)F)c21', 'human PDHK1 (hPDHK1) (Homo sapiens (Human), UniProt Q15118)', 'nM', 4),
  ('C[C@H]1CN(C(=O)c2nnc(C3CC3)o2)Cc2onc([C@@](C)(O)C(F)(F)F)c21', 'human PDHK1 (hPDHK1) (Homo sapiens (Human), UniProt Q15118)', 'nM', 6),
  ('C[C@H]1CN(C(=O)c2ccn(C3CC3)n2)Cc2onc([C@@](C)(O)C(F)(F)F)c21', 'human PDHK1 (hPDHK1) (Homo sapiens (Human), UniProt Q15118)', 'nM', 7);

A = C[C@H]1CN(C(=O)c2ccc3nn(C)cc3c2)Cc2cnc([C@@](C)(O)C(F)(F)F)n21
B = C[C@H]1CN(C(=O)c2c3ccc(C#N)cc3nn2C)Cc2cnc([C@@](C)(O)C(F)(F)F)n21
C = C[C@H]1CN(C(=O)c2cc(C3CC3)on2)Cc2cnc([C@@](C)(O)C(F)(F)F)n21
// ranking: key=IC50, reverse=True Answer format: the labels, ordered as requested.
C, A, B

I = C[C@H]1CN(C(=O)c2cnn(-c3ccc(F)cc3)c2C(F)(F)F)Cc2cnc([C@@](C)(O)C(F)(F)F)n21
II = C[C@H]1CN(C(=O)c2cncc(-c3ccc(C#N)cc3F)c2)Cc2cnc([C@@](C)(O)C(F)(F)F)n21
Of I versus II , which is the one with smaller reported IC50? Give the label of your selection.
II
(II: 4 nM, I: 8 nM)

I = C[C@H]1CN(C(=O)c2ccc(F)c(C3CC3)n2)Cc2cnc([C@@](C)(O)C(F)(F)F)n21
II = C[C@H]1CN(C(=O)c2ccc(=O)n(-c3ccc(F)cc3)c2)Cc2cnc([C@@](C)(O)C(F)(F)F)n21
Of I versus II , which is the one with smaller reported IC50? Give the label of your selection.
I
